- target.of.assay: KIF5B-RET-BaF3 (Homo sapiens, UniProt P07949)
- Construct: fused on or other part: P33176 (Kinesin-1 heavy chain)
- Sequence (P07949 whole entry, change not shown, the tested form may be a part): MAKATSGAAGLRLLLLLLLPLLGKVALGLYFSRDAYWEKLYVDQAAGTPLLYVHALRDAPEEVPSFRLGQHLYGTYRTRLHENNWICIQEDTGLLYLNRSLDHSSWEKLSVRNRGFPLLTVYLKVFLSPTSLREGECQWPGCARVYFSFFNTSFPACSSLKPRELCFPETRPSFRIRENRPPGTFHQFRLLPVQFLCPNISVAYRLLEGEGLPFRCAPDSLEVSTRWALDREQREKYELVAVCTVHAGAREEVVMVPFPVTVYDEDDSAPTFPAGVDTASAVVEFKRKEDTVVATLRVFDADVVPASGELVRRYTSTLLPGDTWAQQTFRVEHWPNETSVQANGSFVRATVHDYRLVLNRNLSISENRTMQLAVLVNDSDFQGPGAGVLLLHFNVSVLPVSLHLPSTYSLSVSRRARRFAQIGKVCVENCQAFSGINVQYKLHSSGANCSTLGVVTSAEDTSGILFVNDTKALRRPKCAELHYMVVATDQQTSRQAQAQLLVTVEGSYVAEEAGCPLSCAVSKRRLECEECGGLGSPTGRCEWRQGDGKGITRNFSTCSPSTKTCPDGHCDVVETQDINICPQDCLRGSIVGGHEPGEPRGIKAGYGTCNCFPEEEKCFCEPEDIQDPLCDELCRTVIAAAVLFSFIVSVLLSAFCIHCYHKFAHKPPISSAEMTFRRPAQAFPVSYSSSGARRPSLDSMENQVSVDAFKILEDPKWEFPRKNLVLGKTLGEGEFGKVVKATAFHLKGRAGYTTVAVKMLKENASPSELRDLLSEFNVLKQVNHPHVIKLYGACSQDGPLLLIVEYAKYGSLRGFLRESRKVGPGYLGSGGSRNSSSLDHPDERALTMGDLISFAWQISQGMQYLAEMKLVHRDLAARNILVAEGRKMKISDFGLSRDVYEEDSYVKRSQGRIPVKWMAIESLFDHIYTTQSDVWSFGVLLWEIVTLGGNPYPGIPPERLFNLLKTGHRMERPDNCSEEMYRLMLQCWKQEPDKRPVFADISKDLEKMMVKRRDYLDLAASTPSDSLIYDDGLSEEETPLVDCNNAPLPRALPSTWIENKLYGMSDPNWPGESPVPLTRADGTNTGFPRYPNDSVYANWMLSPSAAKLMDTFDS
- test.name: Growth inhibition of KIF5B-RET-BaF3 cells stably transfected with kinase (MTS)
- Assay type: cell-based
- assay.conditions: 48 h, read-out: KIF5B-RET (IC50/nM)
measured.quantity: GI50 (nM)
Only the number, expressed in nM, is required.

Worked examples follow.
molecule="CN1CCN(Cc2ccc(C(=O)Nc3cc(Oc4nc(-c5ccncc5)nc5[nH]ncc45)ccc3Cl)cc2C(F)(F)F)CC1 [II-k-4]" result=104
molecule="CN1CCN(Cc2ccc(NC(=O)c3cc(Oc4nc(-c5cccc(Cl)c5)nc5c4ncn5C)ccc3Cl)cc2C(F)(F)F)CC1 [I-o-4]" result=1410
molecule="Cc1ccc(NC(=O)c2ccc(CN3CCN(C)CC3)c(C(F)(F)F)c2)cc1Oc1nc(-c2ccncc2)nc2ccsc12 [VI-i-2]" result=7420

The reported value for Cc1ccc(C(=O)Nc2ccc(CN3CCN(C)CC3)c(C(F)(F)F)c2)cc1Oc1nc(Nc2ccccc2)nc2c1cnn2C [II-m-12] in terms of GI50 is 69.7

Looking up Cc1ccc(Oc2nc(-c3ccoc3)nc3c2ncn3C)cc1NC(=O)c1ccc(CN2CCN(C)CC2)c(C(F)(F)F)c1 [I-j-6] , I found its GI50 recorded as 1180

Entry under test: Cc1ccc(Oc2nc(-c3ccoc3)nc3c2ncn3C)cc1C(=O)Nc1ccc(CN2CCN(C)CC2)c(C(F)(F)F)c1 [I-n-11] . Its GI50 was 1960

Cc1ccc(C(=O)Nc2cc(CN3CCN(C)CC3)cc(C(F)(F)F)c2)cc1Oc1nc(-c2ccncc2)nc2ccsc12 [VI-q-2] yielded GI50 of 1470

Summary for this molecule, CCC(=O)NCC1CCN(c2ccc(NC(=O)c3ccc(C)c(Oc4nc(-c5cccnc5)nc5c4cnn5C)c3)cc2C(F)(F)F)CC1 [II-v-7] : GI50 is 1200

* * *

- target.of.assay: CCDC6-RET-BaF3 (Homo sapiens)
- Construct: fused on or other part: Q16204 (Coiled-coil domain-containing protein 6)
- test.name: Growth inhibition of CCDC6-RET-BaF3 cells stably transfected with kinase (MTS)
- Format: cell-based
- assay.conditions: 48 h, read-out: CCDC6-RET (IC50/nM)
measured.quantity: GI50 (nM)
Report only the number, with the unit nM understood.

See these solved cases before continuing.
query_smiles=CN1CCN(Cc2ccc(NC(=O)c3cc(Oc4nc(-c5ccncc5)nc5c4cnn5C)ccc3Cl)cc2C(F)(F)F)CC1 target_of_assay="CCDC6-RET-BaF3 (Homo sapiens)" measured_quantity=GI50 unit_symbol=nM result=108
query_smiles=Cc1ccc(Oc2nc(-c3ccc(N)cc3)nc3nn(C)cc23)cc1C(=O)Nc1ccc(CN2CCN(C)CC2)c(C(F)(F)F)c1 target_of_assay="CCDC6-RET-BaF3 (Homo sapiens)" measured_quantity=GI50 unit_symbol=nM result=1830
query_smiles=Cc1ccc(Oc2nc(-c3ccncc3)nc3c2ncn3C)cc1C(=O)Nc1cccc(C(F)(F)F)c1 target_of_assay="CCDC6-RET-BaF3 (Homo sapiens)" measured_quantity=GI50 unit_symbol=nM result=4850
query_smiles=Cc1ccc(Oc2cc(-c3ccncc3)nc3sccc23)cc1NC(=O)c1ccc(CN2CCN(C)CC2)c(C(F)(F)F)c1 target_of_assay="CCDC6-RET-BaF3 (Homo sapiens)" measured_quantity=GI50 unit_symbol=nM result=95.6
query_smiles=Cc1ccc(Oc2nc(-c3ccncc3)nc3ccn(C)c23)cc1C(=O)Nc1ccc(CN2CCN(C)CC2)c(C(F)(F)F)c1 target_of_assay="CCDC6-RET-BaF3 (Homo sapiens)" measured_quantity=GI50 unit_symbol=nM result=43.1
query_smiles=CN1CCN(Cc2ccc(C(=O)Nc3cc(Oc4nc(-c5ccoc5)nc5cc[nH]c45)ccc3Cl)cc2C(F)(F)F)CC1 target_of_assay="CCDC6-RET-BaF3 (Homo sapiens)" measured_quantity=GI50 unit_symbol=nM result=1490

Moving on to another compound below.
CN1CCN(Cc2ccc(C(=O)Nc3cccc(Oc4nc(-c5ccncc5)nc5ccn(C)c45)c3)cc2C(F)(F)F)CC1 yielded GI50 of 195

* * *

# log10(GI50) values compiled below
- target.of.assay: CCDC6-RET-BaF3 (Homo sapiens)
- Construct: fused on or other part: Q16204 (Coiled-coil domain-containing protein 6)
- test.name: Growth inhibition of CCDC6-RET-BaF3 cells stably transfected with kinase (MTS)
- Type: cell-based
- assay.conditions: 48 h, read-out: CCDC6-RET (IC50/nM)
Remember, log10 of GI50, in nM.

molecule="CN1CCN(Cc2ccc(C(=O)Nc3cc(Oc4nc(-c5ccc(N)cc5)nc5cc[nH]c45)ccc3Cl)cc2C(F)(F)F)CC1 [III-k-11]" result=2.65
molecule="Cc1ccc(-c2nc(Oc3cc(C(=O)Nc4ccc(CN5CCN(C)CC5)c(C(F)(F)F)c4)ccc3C)c3cnn(C)c3n2)cc1 [II-m-4]" result=2.93
molecule="Cc1ccc(Oc2nc(-c3cccc(N)c3)nc3nn(C)cc23)cc1C(=O)Nc1ccc(CN2CCN(C)CC2)c(C(F)(F)F)c1 [IV-n-8]" result=3.32

# log10(GI50) of Cc1ccc(C(=O)Nc2ccc(CN3CCN(C)CC3)c(C(F)(F)F)c2)cc1Oc1nc(-c2ccsc2)nc2c1cnn2C [II-m-10] = 2.65

What the record says about Cc1ccc(-c2nc(Oc3cc(C(=O)Nc4ccc(CN5CCN(C)CC5)c(C(F)(F)F)c4)ccc3C)c3[nH]ccc3n2)cc1 [III-m-4] : log10(GI50) is 3.43

* * *

GI50 for assorted compounds
- target.of.assay: CCDC6-RET-BaF3 (Homo sapiens)
- Construct: fused on or other part: Q16204 (Coiled-coil domain-containing protein 6)
- test.name: Growth inhibition of CCDC6-RET-BaF3 cells stably transfected with kinase (MTS)
- Type: cell-based
- assay.conditions: 48 h, read-out: CCDC6-RET (IC50/nM)
Please format your answer as a value with the unit trailing.

compound="Cc1ccc(C(=O)Nc2ccc(CN3CCN(C)CC3)c(C(F)(F)F)c2)cc1Oc1nc(N2CC(C)OC(C)C2)nc2ccn(C)c12 (stereo not drawn)" result="3490 nM"

The compound Cc1ccc(Oc2nc(-c3ccc(O)cc3)nc3nn(C)cc23)cc1C(=O)Nc1ccc(CN2CCN(C)CC2)c(C(F)(F)F)c1 showed GI50 equal to 2810 nM

For record Cc1ccc(Oc2nc(-c3ccc(Cl)cc3)nc3ccn(C)c23)cc1NC(=O)c1ccc(CN2CCN(C)CC2)c(C(F)(F)F)c1 the listed GI50 is 2660 nM

* * *

- target.of.assay: KIF5B-RET-BaF3 (Homo sapiens)
- Construct: fused on or other part: P33176 (Kinesin-1 heavy chain)
- test.name: Growth inhibition of KIF5B-RET-BaF3 cells stably transfected with kinase (MTS)
- Format: cell-based
- assay.conditions: 48 h, read-out: KIF5B-RET (IC50/nM)
Recorded GI50 values for a group of compounds are listed next.
I only need the number, in nM, no unit after it.

Per the record, Cc1ccc(C(=O)Nc2ccc(CN3CCN(C)CC3)c(C(F)(F)F)c2)cc1Oc1nc(-c2cccnc2)nc2cc[nH]c12 has GI50 of 2100

# GI50 (compound: CN1CCN(Cc2ccc(NC(=O)c3cc(Oc4nc(-c5ccc(N)cc5)nc5nn(C)cc45)ccc3Cl)cc2C(F)(F)F)CC1 ) is 4360

Record CN1CCN(Cc2ccc(C(=O)Nc3cc(Oc4nc(-c5ccc(O)cc5)nc5cc[nH]c45)ccc3Cl)cc2C(F)(F)F)CC1 , field GI50: 1490

The compound listed as CN1CCN(Cc2ccc(NC(=O)c3cc(Oc4nc(-c5cccc(O)c5)nc5c4ncn5C)ccc3Cl)cc2C(F)(F)F)CC1 shows GI50 equal to 1360

* * *

- target.of.assay: KIF5B-RET-BaF3 (Homo sapiens)
- Construct: fused on or other part: P33176 (Kinesin-1 heavy chain)
- test.name: Growth inhibition of KIF5B-RET-BaF3 cells stably transfected with kinase (MTS)
- Format: cell-based
- assay.conditions: 48 h, read-out: KIF5B-RET (IC50/nM)
measured.quantity: GI50 (nM)
// note: answer is a bare numeric in nM

The following molecules have reported results that may help.
query_smiles=CN1CCN(Cc2ccc(C(=O)Nc3cc(Oc4nc(-c5cccnc5)nc5[nH]ncc45)ccc3Cl)cc2C(F)(F)F)CC1 result=1350
query_smiles=Cc1ccc(C(=O)Nc2ccc(CN3CCN(C)CC3)c(C(F)(F)F)c2)cc1Oc1nc(N(C)C)nc2ccn(C)c12 result=3230
query_smiles=CN1CCN(Cc2ccc(C(=O)Nc3cccc(Oc4nc(-c5ccncc5)nc5cc[nH]c45)c3)cc2C(F)(F)F)CC1 result=16.4

Please fill in: GI50 reported for Cc1ccc(Oc2nc(-c3ccoc3)nc3c2cnn3C)cc1NC(=O)c1ccc(CN2CCN(C)CC2)c(C(F)(F)F)c1 = 3210

Reported GI50 of Cc1ccc(C(=O)Nc2ccc(CN3CCN(C)CC3)c(C(F)(F)F)c2)cc1Oc1nc(-c2ccc(Cl)cc2)nc2ccn(C)c12 : 2720

The value of GI50 measured for the molecule CN1CCN(Cc2ccc(C(=O)Nc3cccc(Oc4nc(-c5cccnc5)nc5[nH]ncc45)c3)cc2C(F)(F)F)CC1 turned out to be 820

The reported value for CN1CCN(Cc2ccc(NC(=O)c3cc(Oc4nc(-c5cccc(O)c5)nc5nn(C)cc45)ccc3Cl)cc2C(F)(F)F)CC1 in terms of GI50 is 3400
